ASSAY_TARGET: Histone acetyltransferase KAT2A (Homo sapiens) (UniProt Q92830)
Sequence (Q92830 whole entry, looked up): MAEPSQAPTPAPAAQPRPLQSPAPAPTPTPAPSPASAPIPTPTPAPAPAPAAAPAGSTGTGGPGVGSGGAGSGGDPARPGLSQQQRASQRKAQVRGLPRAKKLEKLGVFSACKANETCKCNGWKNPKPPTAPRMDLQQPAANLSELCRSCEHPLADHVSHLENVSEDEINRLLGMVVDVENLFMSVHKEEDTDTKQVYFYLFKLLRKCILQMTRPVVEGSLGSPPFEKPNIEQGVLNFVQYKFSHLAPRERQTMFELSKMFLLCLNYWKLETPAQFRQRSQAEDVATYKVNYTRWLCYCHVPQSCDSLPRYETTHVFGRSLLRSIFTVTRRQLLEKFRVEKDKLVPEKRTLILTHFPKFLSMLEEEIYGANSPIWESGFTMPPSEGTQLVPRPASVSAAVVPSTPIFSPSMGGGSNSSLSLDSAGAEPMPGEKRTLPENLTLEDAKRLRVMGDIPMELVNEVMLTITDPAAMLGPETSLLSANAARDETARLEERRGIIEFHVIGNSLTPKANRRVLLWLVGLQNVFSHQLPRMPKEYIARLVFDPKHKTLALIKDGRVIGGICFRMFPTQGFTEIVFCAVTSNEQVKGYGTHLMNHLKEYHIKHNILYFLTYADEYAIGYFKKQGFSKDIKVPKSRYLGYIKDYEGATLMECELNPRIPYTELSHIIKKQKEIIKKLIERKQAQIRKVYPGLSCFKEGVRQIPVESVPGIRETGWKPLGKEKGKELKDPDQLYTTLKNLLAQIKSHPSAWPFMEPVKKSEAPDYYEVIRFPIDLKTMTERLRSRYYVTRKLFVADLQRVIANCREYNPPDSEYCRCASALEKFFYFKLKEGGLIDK
ASSAY_OVERVIEW: qHTS Assay for Inhibitors of GCN5L2
TEST_SETTINGS: GCN5L2 HAT assay, ThioGlo1 CoA-SH fluorescence; series mostly up to 58.9 µM
Screen size: about 390,000 compounds; about 820 (0.21%) were called active. Roughly 3% stayed inconclusive and do not appear here. Calls come from the whole dose curve; as a rule, active = well fitted inhibition curve with a large enough effect; inconclusive = small, poorly fitted or top-dose-only effect, or another doubt; inactive = no such curve, though single readings can be large or run the other way. This is one part of a sample in which actives are shown more often than they occur.
Classes used: active, inactive

- FCOC(C(F)(F)F)C(F)(F)F: inactive
- Nc1nc2c(nc(Cl)n2C2OC(CO)C(O)C2O)c(=O)[nH]1 (stereo not drawn): inactive
- COCCn1c(=O)c(-c2ccccc2)nc2cnc(N3CCOCC3)nc21: inactive
- Cc1nc2cnc(N3CCN(C)CC3)nc2n(CCC#N)c1=O: inactive
- O=P(O)(O)OC[C@H](O)CO: inactive
- COc1ccc(CNc2ncncc2-c2ccccc2OC)c(OC)c1: inactive
- CN1CCN(c2ncc3nc(-c4ccc(Cl)cc4)c(=O)n(-c4ccccc4)c3n2)CC1: inactive
- Cc1cc(N(C)C)nc(Cl)n1: inactive
- COc1ccc(-c2nc3cnc(OC)nc3n(Cc3ccc(F)cc3)c2=O)cc1: inactive
- CCCCCCn1nnc2sc(-c3ccccc3)cc2c1=O: inactive
- CC(C)C1=CC2=CC[C@@H]3[C@](C)(CO)CCC[C@]3(C)C2CC1 (stereo partly drawn): inactive
- Cc1ccc(/C(=C/CN2CCCC2)c2ccccn2)cc1: inactive
- O=C(Nc1cccc(F)c1)N1CC2(CCN(C(=O)c3cnccn3)CC2)C1: inactive
- O=Cc1c(Nc2ccccc2Cl)nc2ccccn2c1=O: active
- Oc1c(Cl)cc(Cl)c(Cl)c1Cc1c(O)c(Cl)cc(Cl)c1Cl: active
- CC1=C(/C=C/C(C)=C/C=C/C(C)=C/C=C/C=C(C)/C=C/C=C(C)/C=C/C(=O)[C@]2(C)C[C@@H](O)CC2(C)C)C(C)(C)C[C@H](O)C1: inactive
- Cc1cc2nn(-c3ccc(Cl)cc3)nc2cc1NC(=O)C(C)C: inactive
- CC(C)=CCC/C(C)=C/CC/C(C)=C/CC/C(C)=C/CO: inactive
- C=C1C(=O)C23C(O)C1CCC2[C@]12COC3(O)C(O)C1C(C)(C)CC[C@H]2O (stereo partly drawn): inactive
- Cc1cccn2c(=O)c(C=O)c(Nc3ccc(S(N)(=O)=O)cc3)nc12: inactive
- C=CCOC(=O)C(=C)C: inactive
- COc1ccc(CNc2ncnc3ccc(-c4cccnc4)cc23)c(OC)c1: inactive
- Cc1c(C)n(Cc2ccc(Cl)cc2)c2ccc(C(=O)N3CCN(c4ccccc4F)CC3)cc12: inactive

====

ASSAY_TARGET: Histone acetyltransferase KAT2A (Homo sapiens)
ASSAY_OVERVIEW: qHTS Assay for Inhibitors of GCN5L2
TEST_SETTINGS: GCN5L2 HAT assay, ThioGlo1 CoA-SH fluorescence; series mostly up to 58.9 µM
In all, about 390,000 compounds went through this assay and about 820 (0.21%) were called active. Another 3% or so got no clear call; they are omitted. Calls follow the shape of the dose curve; as a rule, active = well fitted inhibition curve with a large enough effect; inconclusive = small, poorly fitted or top-dose-only effect, or another doubt; inactive = no such curve, though single readings can be large or run the other way. The sample as a whole holds a higher share of actives than the screen did.
Outcomes: active, inactive

- COc1ccc(NC(=O)COCc2cc(-c3ccco3)on2)cc1: inactive
- O=C1C(c2[nH]c3ccccc3c2O)=Nc2ccccc21: inactive
- O=C(c1ccco1)N1CCC[C@@]2(CCN(c3ccccc3)C2)C1: inactive
- COc1ccc(N2CCN(S(=O)(=O)c3ccc(-c4coc(C)n4)cc3)CC2)cc1: inactive
- C=C1O[C@@](CO)(n2cnc3c(N)ncnc32)[C@H](O)[C@@H]1O: inactive
- COC(=O)N1CCC2(CCCN(c3ccncc3)C2)CC1: inactive
- COc1ccccc1-c1cc(NCc2cccs2)ncn1: inactive
- O=P(O)(O)C(O)c1ccc2ccccc2c1 (stereo not drawn): inactive
- Cc1ccccc1-c1ccc(C(=O)O)s1: inactive
- C=C1/C(=C\C=C2\CCCC3(C)C2CCC3C(C)/C=C/C(O)C2CC2)CC(O)CC1O (stereo not drawn): inactive
- O=C(c1cnccn1)N1CCC[C@@]2(CCN(Cc3ccncc3)C2)C1: inactive
- O=C(NCc1ccccn1)c1ccc2nc(-c3ccco3)c(-c3ccco3)nc2c1: active
- Oc1ccc2c(c1)OCC1c3cc4c(cc3OC21)OCO4 (stereo not drawn): inactive
- COc1ccc(-c2nc3ccc(C(=O)NCc4ccc(C)cc4)cc3nc2-c2ccc(OC)cc2)cc1: inactive
- CCc1nc(-c2cc(S(=O)(=O)N3CCN(c4ccc(OC)cc4)CC3)ccc2OC)no1: active
- COc1cccc(Nc2ncc3ncc(=O)n(C4CC4)c3n2)c1: inactive
- CC(C)(O)c1ccccc1CC[C@H](SCC1(CC(=O)O)CC1)c1cccc(/C=C/c2ccc3ccc(Cl)cc3n2)c1: active
- COc1ccc(CCCOC(Cn2ccnc2)c2ccc(OC)cc2)cc1 (stereo not drawn): inactive
- CN1CCN2c3ccccc3Cc3ccccc3[C@@H]2C1: inactive
- CCCCC/C=C\C/C=C\CCCCCCCCCC(=O)O: inactive
- CCN(c1ccccc1)S(=O)(=O)c1cc(C(=O)NCc2ccccn2)ccc1C: inactive
- COCC(=O)N1CCC2(CCCN(c3ccccc3)C2)CC1: inactive
- COc1cccc(Cn2c(=O)c(-c3cc(F)cc(F)c3)nc3cnc(OC)nc32)c1: inactive
